Numbers sourced from ChEMBL document CHEMBL1154651.

# experimental-protocol: Cytotoxicity against human LTEDaro cells after 72 hrs by MTT assay
# Assay type: functional, cell-based
IC50 strictly less than 20 µM = yes. Otherwise no.

Example entries begin here.
molecule: Cc1cccc(COc2cc(NC(=O)Cc3ccccn3)ccc2N(C)S(C)(=O)=O)c1
label-class: yes
--
molecule: Cc1cccc(COc2cc(NC(=O)C3CCCCC3)ccc2N(C)S(C)(=O)=O)c1
label-class: no
--
molecule: CC(C)c1ccc(COc2cc(NC(=O)Cc3ccncc3)ccc2N(C)S(C)(=O)=O)cc1
label-class: yes
--
molecule: Cc1cc(C)c(COc2cc(NC(=O)c3ccccc3)ccc2N(C)S(C)(=O)=O)c(C)c1
label-class: yes
--
molecule: Cc1ccccc1COc1cc(NC(=O)C2CCCCC2)ccc1N(C)S(C)(=O)=O
label-class: no
--
molecule: CS(=O)(=O)Nc1ccc([N+](=O)[O-])cc1Oc1ccccc1 [NIMESULIDE]
label-class: no
--
molecule: CCCCCCOc1cc(NC(=O)c2ccccc2)ccc1N(C)S(C)(=O)=O
label-class: yes
--
molecule: CN(c1ccc(NC(=O)c2ccccc2)cc1OCc1cc(Cl)ccc1Cl)S(C)(=O)=O
label-class: yes
--
molecule: Cc1ccccc1COc1cc(NC(=O)Cc2ccccn2)ccc1N(C)S(C)(=O)=O
label-class: no
--
molecule: Cc1ccccc1COc1cc(NC(=O)Cc2cccnc2)ccc1N(C)S(C)(=O)=O
label-class: no

Would you kindly verify if IC50 of Cc1cccc(C)c1COc1cc(NC(=O)c2ccccc2)ccc1N(C)S(C)(=O)=O is strictly less than 20 µM?
yes

Would you kindly verify if IC50 of CCCCCCOc1cc(NC(=O)Cc2ccccn2)ccc1N(C)S(C)(=O)=O is strictly less than 20 µM?
yes

----------
# experimental-protocol: Cytotoxicity against human LTEDaro cells after 72 hrs by MTT assay
# Type: functional, cell-based
Parameter: IC50. Scope: all listed entries.
Write the answer as a number in µM, unit excluded.

The cases that follow already have their IC50 on record.
chemical-structure: Cc1ccc(C)c(COc2cc(NC(=O)Cc3ccccn3)ccc2N(C)S(C)(=O)=O)c1
unit-of-measure: µM
observed: 174
//
chemical-structure: Cc1cc(C)c(COc2cc(NC(=O)Cc3ccccn3)ccc2N(C)S(C)(=O)=O)c(C)c1
unit-of-measure: µM
observed: 51.3
//
chemical-structure: CC(C)c1ccc(COc2cc(NC(=O)c3ccccc3)ccc2N(C)S(C)(=O)=O)cc1
unit-of-measure: µM
observed: 7.93
//
chemical-structure: CC(C)c1ccc(COc2cc(NC(=O)Cc3cccnc3)ccc2N(C)S(C)(=O)=O)cc1
unit-of-measure: µM
observed: 8.26

Entry Cc1cccc(COc2cc(NC(=O)c3ccccc3)ccc2N(C)S(C)(=O)=O)c1 : reported IC50 = ?
16.1

----------
Parameter: IC50. Scope: all listed entries.
# experimental-protocol: Cytotoxicity against human LTEDaro cells after 72 hrs by MTT assay
# Format: functional, cell-based
Write the answer as a number in µM, unit excluded.

The cases that follow already have their IC50 on record.
chemical-structure: CN(c1ccc(NC(=O)C2CCCCC2)cc1OCc1cc(Cl)ccc1Cl)S(C)(=O)=O
unit-of-measure: µM
IC50: 1

chemical-structure: CCCCCCOc1cc(NC(=O)Cc2ccncc2)ccc1N(C)S(C)(=O)=O
unit-of-measure: µM
IC50: 9.56

chemical-structure: Cc1cccc(C)c1COc1cc(NC(=O)Cc2ccncc2)ccc1N(C)S(C)(=O)=O
unit-of-measure: µM
IC50: 19.9

chemical-structure: Cc1ccc(C)c(COc2cc(NC(=O)Cc3ccncc3)ccc2N(C)S(C)(=O)=O)c1
unit-of-measure: µM
IC50: 2.37

chemical-structure: CC(C)c1ccc(COc2cc(NC(=O)Cc3ccccn3)ccc2N(C)S(C)(=O)=O)cc1
unit-of-measure: µM
IC50: 11.4

Entry CCCCCCOc1cc(NC(=O)Cc2cccnc2)ccc1N(C)S(C)(=O)=O : reported IC50 = ?
12.1

----------
# experimental-protocol: Cytotoxicity against human LTEDaro cells after 72 hrs by MTT assay
# Format: functional, cell-based
# IC50 binned as bucket 1 (below 8 µM), bucket 2 (8 µM to below 20 µM), bucket 3 (20 µM or more)

Example entries begin here.
chemical-structure: Cc1cc(C)c(COc2cc(NC(=O)Cc3cccnc3)ccc2N(C)S(C)(=O)=O)c(C)c1
label-class: bucket 2
--
chemical-structure: CN(c1ccc(NC(=O)Cc2cccnc2)cc1OCc1cc(Cl)ccc1Cl)S(C)(=O)=O
label-class: bucket 2
--
chemical-structure: Cc1cccc(C)c1COc1cc(NC(=O)C2CCCCC2)ccc1N(C)S(C)(=O)=O
label-class: bucket 3
--
chemical-structure: Cc1ccc(C)c(COc2cc(NC(=O)Cc3cccnc3)ccc2N(C)S(C)(=O)=O)c1
label-class: bucket 1
--
chemical-structure: Cc1ccccc1COc1cc(NC(=O)c2ccccc2)ccc1N(C)S(C)(=O)=O
label-class: bucket 3

Lab note: which band did CN(c1ccc(NC(=O)Cc2ccncc2)cc1OCc1cc(Cl)ccc1Cl)S(C)(=O)=O land in?
bucket 1

Lab note: which band did Cc1cccc(C)c1COc1cc(NC(=O)Cc2cccnc2)ccc1N(C)S(C)(=O)=O land in?
bucket 3

Lab note: which band did Cc1ccc(C)c(COc2cc(NC(=O)c3ccccc3)ccc2N(C)S(C)(=O)=O)c1 land in?
bucket 1

Lab note: which band did Cc1ccccc1COc1cc(NC(=O)Cc2ccncc2)ccc1N(C)S(C)(=O)=O land in?
bucket 2

----------
Parameter: IC50. Scope: all listed entries.
# experimental-protocol: Cytotoxicity against human LTEDaro cells after 72 hrs by MTT assay
# Format: functional, cell-based
Write the answer as a number in µM, unit excluded.

The cases that follow already have their IC50 on record.
chemical-structure: Cc1cccc(C)c1COc1cc(NC(=O)Cc2ccccn2)ccc1N(C)S(C)(=O)=O
IC50 / µM: 41.4
//
chemical-structure: Cc1cc(C)c(COc2cc(NC(=O)Cc3ccncc3)ccc2N(C)S(C)(=O)=O)c(C)c1
IC50 / µM: 13.2
//
chemical-structure: Cc1cccc(COc2cc(NC(=O)Cc3ccncc3)ccc2N(C)S(C)(=O)=O)c1
IC50 / µM: 16.1

# evaluate next
Entry CC(C)c1ccc(COc2cc(NC(=O)C3CCCCC3)ccc2N(C)S(C)(=O)=O)cc1 : reported IC50 = ?
16.1

----------
# experimental-protocol: Cytotoxicity against human LTEDaro cells after 72 hrs by MTT assay
# Format: functional, cell-based
reported-property: pIC50
Hey, just a heads up that pIC50 is the negative log base 10 of the concentration in molar.

chemical-structure: Cc1cccc(COc2cc(NC(=O)Cc3cccnc3)ccc2N(C)S(C)(=O)=O)c1
pIC50: 4.03
--
chemical-structure: CN(c1ccc(NC(=O)Cc2ccccn2)cc1OCc1cc(Cl)ccc1Cl)S(C)(=O)=O
pIC50: 4.63
--
chemical-structure: Cc1cc(C)c(COc2cc(NC(=O)C3CCCCC3)ccc2N(C)S(C)(=O)=O)c(C)c1
pIC50: 4.73

# evaluate next
Entry CCCCCCOc1cc(NC(=O)C2CCCCC2)ccc1N(C)S(C)(=O)=O : reported pIC50 = ?
5.16
